Just for reference, ChEMBL document CHEMBL3621044 is where these values come from.

measuredOn: Histone acetyltransferase KAT2B (Homo sapiens)
Sequence (Q92831 whole entry, looked up, the tested form may be a part): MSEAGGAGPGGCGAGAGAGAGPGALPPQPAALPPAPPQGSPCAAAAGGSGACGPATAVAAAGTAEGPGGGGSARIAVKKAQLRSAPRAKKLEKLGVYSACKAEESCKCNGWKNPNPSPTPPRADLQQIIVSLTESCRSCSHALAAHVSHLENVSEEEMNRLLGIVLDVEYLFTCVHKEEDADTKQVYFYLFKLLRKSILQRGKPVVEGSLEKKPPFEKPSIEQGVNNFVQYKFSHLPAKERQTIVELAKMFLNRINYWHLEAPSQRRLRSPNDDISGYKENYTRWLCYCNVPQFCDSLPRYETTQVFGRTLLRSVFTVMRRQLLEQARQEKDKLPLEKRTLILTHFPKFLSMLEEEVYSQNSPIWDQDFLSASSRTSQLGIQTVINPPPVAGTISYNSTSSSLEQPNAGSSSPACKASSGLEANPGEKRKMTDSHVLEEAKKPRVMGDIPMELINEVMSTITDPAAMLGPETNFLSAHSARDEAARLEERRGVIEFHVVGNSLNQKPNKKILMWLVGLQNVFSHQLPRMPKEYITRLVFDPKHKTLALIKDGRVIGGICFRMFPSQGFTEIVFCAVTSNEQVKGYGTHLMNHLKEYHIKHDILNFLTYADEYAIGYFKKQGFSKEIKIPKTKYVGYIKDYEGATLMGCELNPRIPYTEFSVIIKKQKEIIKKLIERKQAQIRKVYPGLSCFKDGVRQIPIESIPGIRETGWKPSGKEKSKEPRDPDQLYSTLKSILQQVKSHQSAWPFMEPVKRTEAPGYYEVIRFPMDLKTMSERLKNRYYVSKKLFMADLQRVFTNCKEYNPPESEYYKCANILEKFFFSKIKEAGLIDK
protocolSummary: Inhibition of recombinant human KAT2B catalytic domain using biotinylated histone H3 (1 to 21 amino acid residues) as substrate at 50 uM preincubated for 10 mins followed by acetyl-CoA addition measured after 10 mins by time resolved fluorescence assay
Readings of inhibition for the listed compounds
I only need the number, in %, no unit after it.

Completed entries (count: 5):
{"columns": ["structureAsSmiles", "assayResult"],
 "data": [
  ["O=C(Cn1sc2ccccc2c1=O)NCc1ccccn1", 91],
  ["Cc1csc(-n2sc3ccccc3c2=O)n1", 92],
  ["CCOC(=O)Cn1sc2nc(C)cc(C)c2c1=O", 97],
  ["O=c1c2ccccc2sn1-c1nc2ccccc2s1", 73],
  ["Cc1ccc(-c2csc(-n3sc4ccccc4c3=O)n2)cc1", 70]
]}

Problem: Bench note: what inhibition did Cc1ccnc(-n2sc3ccccc3c2=O)n1 show?
Result: 90

Problem: Thanks! And COCCNC(=O)Cn1sc2ccccc2c1=O ?
Result: 92

Problem: Thanks! And O=c1c2ccccc2sn1-c1ccc(S(=O)(=O)N2CCCC2)cc1 ?
Result: 90

Problem: Thanks! And CCCCc1ccc(-n2sc3ncc(-c4ccccc4)cc3c2=O)cc1 ?
Result: 54

Problem: Thanks! And O=c1c2cc([N+](=O)[O-])cnc2sn1-c1ccc(Oc2ccccc2)cc1 ?
Result: 94

Problem: Thanks! And Cc1cc(-n2sc3ccccc3c2=O)c2ccccc2n1 ?
Result: 2.06

----------
measuredOn: Histone acetyltransferase p300 (Homo sapiens, UniProt Q09472)
Sequence (Q09472 whole entry, the tested form may be a part): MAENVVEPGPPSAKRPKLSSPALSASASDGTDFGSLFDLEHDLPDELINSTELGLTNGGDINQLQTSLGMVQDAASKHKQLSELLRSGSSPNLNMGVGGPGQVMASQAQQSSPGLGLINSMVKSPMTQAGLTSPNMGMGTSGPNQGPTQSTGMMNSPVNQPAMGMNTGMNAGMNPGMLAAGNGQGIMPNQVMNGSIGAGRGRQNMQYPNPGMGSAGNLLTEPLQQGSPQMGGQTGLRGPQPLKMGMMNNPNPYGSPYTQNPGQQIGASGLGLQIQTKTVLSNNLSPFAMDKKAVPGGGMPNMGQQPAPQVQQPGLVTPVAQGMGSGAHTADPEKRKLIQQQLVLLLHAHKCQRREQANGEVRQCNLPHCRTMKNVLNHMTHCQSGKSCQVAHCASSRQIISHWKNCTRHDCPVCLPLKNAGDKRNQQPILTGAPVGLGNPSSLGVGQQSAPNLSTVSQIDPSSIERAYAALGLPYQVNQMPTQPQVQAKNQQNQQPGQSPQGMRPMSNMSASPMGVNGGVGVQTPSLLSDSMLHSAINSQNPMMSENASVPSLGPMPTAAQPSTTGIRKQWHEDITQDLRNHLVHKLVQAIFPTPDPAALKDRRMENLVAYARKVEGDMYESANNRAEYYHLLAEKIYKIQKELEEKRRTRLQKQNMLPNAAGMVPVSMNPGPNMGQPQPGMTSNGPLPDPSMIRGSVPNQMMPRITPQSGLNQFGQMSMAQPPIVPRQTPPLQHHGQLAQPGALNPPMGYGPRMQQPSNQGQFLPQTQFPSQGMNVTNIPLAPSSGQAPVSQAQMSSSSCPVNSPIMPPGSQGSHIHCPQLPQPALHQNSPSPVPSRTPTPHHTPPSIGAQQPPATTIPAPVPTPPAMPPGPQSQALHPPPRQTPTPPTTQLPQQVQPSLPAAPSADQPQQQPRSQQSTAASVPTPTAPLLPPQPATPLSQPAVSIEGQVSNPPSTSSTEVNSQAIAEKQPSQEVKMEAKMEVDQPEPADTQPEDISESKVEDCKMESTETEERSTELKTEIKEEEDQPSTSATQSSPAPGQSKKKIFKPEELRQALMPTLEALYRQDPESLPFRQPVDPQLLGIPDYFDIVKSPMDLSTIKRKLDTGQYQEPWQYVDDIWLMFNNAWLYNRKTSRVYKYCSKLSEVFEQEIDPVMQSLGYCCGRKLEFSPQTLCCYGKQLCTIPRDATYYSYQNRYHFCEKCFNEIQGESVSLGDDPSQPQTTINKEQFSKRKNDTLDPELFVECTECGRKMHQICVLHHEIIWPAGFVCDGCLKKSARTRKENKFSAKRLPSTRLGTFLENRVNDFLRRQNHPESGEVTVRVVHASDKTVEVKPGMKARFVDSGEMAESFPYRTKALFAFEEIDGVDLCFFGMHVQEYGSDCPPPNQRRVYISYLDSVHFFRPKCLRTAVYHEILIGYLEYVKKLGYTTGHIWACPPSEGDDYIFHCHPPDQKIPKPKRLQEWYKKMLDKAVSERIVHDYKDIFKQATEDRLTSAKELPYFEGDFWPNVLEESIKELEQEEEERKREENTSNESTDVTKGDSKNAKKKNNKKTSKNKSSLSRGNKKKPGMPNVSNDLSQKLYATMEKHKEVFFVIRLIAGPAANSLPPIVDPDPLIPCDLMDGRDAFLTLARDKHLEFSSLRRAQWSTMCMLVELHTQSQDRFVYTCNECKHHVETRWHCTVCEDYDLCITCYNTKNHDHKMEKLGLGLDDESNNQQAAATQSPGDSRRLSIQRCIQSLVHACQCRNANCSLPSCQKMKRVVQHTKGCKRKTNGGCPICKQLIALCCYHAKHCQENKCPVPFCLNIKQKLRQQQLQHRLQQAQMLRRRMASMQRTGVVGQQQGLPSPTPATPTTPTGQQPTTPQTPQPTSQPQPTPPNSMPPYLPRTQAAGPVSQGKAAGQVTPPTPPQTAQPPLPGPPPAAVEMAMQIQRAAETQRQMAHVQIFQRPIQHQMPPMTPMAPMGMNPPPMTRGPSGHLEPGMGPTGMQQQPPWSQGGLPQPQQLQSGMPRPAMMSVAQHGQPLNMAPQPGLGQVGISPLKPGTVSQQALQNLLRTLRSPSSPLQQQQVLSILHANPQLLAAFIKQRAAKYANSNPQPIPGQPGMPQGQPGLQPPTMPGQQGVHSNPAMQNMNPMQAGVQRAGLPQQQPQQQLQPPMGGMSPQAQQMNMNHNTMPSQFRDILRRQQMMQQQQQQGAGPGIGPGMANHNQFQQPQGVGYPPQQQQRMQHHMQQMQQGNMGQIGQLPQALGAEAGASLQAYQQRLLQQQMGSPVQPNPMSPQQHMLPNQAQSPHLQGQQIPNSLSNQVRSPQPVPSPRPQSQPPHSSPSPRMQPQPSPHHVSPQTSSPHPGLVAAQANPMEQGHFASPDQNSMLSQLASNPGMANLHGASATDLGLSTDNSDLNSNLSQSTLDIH
protocolSummary: Inhibition of recombinant human p300 using biotinylated histone H3 (1 to 21 amino acid residues) as substrate at 50 uM preincubated for 10 mins followed by acetyl-CoA addition measured after 10 mins by time resolved fluorescence assay
Lab note: anything with inhibition at or over 90% counts as Criterion met; the rest go in Criterion not met.

{"columns": ["molecule", "discreteLabel"],
 "data": [
  ["O=C(O)CCCn1sc2ccccc2c1=O", "Criterion not met"],
  ["CCCCc1ccc(-n2sc3ncc(-c4ccccc4)cc3c2=O)cc1", "Criterion not met"],
  ["O=C(O)C(c1ccccc1)n1sc2ccccc2c1=O (stereo not given)", "Criterion not met"]
]}

Problem: Is reported inhibition greater than or equal to 90% here: O=c1c2cccnc2sn1Cc1ccc(C(F)(F)F)cc1
Result: Criterion met
